System: Avena fatua (AVEFA)
Test: Example B post-emergence herbicidal activity
Assay type: in vivo
Details: 312 h, rate 250 g/ha, evaluated after 13 days, read-out: Post-emergence activity AVEFA (100=total damage to plant; 0=no damage to plant)
Description: Seeds of a variety of test species were sown in standard soil in pots. […] The test plants were then grown in a glasshouse under controlled conditions in a glasshouse (at 24/16° C., day/night; 14 hours light; 65% humidity) and watered twice daily. After 13 days for pre and post-emergence, the test was evaluated (100=total damage to plant; 0=no damage to plant). […]
Field: pest or weed control at 250 g/ha. Provide a value for each of the molecules that follow.
Numbers only, in %.

Cc1oc(-c2ccc(Cl)cc2)nc1C1C(=O)[C@@H]2CC[C@@H](C2)C1=O (some centres unmarked) [Compound T90]	0

Count: 6. Required value per item: pest or weed control at 250 g/ha.
1. CCOC(=O)/C=C/OC1=C(c2nc(-c3ccc(Cl)cc3)sc2CC)C(=O)[C@H]2CC[C@@H]1C2 [Compound P5]
2. CCc1sc(-c2ccc(Cl)cc2)nc1C1=C(OC(=O)C2CC2)C2CCC(C2)C1=O (centres unmarked) [Compound P1]
3. CC(=O)OC1=C(c2nc(-c3ccc(Cl)cc3)ncc2C)C(=O)[C@@H]2C[C@H]1C2(C)C [Compound P19]
4. COc1cc(F)c(-c2nc(C3C(=O)[C@@H]4CC[C@@H](C4)C3=O)c(C)s2)cc1F (some centres unmarked) [Compound T68]
5. Cc1sc(-c2ccc(Br)cn2)nc1C1=C(OC(=O)C(C)(C)C)[C@@H]2CC[C@@H](C2)C1=O [Compound P8]
6. CC(=O)OC1=C(c2nc(-c3ccc(Cl)cc3)ncc2C)C(=O)[C@H]2CC[C@@H]1C2 [Compound P18]

Result ::
1: 90; 2: 100; 3: 0; 4: 90; 5: 80; 6: 0

Query :: So what's the measured pest or weed control at 250 g/ha for this one? Cc1cc(Cl)ncc1-c1nc(C2C(=O)[C@@H]3CC[C@@H](C3)C2=O)c(C)s1 (some centres unmarked) [Compound T75]
Result :: 0

* * *

system: Avena fatua (AVEFA); assay: Example B post-emergence herbicidal activity; type: in vivo; settings: 312 h, rate 250 g/ha, evaluated after 13 days, read-out: Post-emergence activity AVEFA (100=total damage to plant; 0=no damage to plant)
Measured quantity: pest or weed control at 250 g/ha
Quick note: number first, unit second.

Known pest or weed control at 250 g/ha results, listed for orientation:
Cc1sc(-c2ccc(OC(F)F)cc2Cl)nc1C1C(=O)[C@@H]2CC[C@@H](C2)C1=O (some centres unmarked)	70%
CCOc1ccc(-c2nc(C3C(=O)[C@@H]4CC[C@@H](C4)C3=O)c(CC)s2)cc1F (some centres unmarked)	80%
CCc1sc(-c2ccc3ccccc3c2)nc1C1C(=O)[C@@H]2CC[C@@H](C2)C1=O (some centres unmarked)	100%
Cc1sc(-c2ccc(Cl)c(C#N)c2)nc1C1C(=O)C2CCC(C2)C1=O (centres unmarked)	0%
Cc1sc(-c2ccc(I)cc2)nc1C1C(=O)[C@@H]2CC[C@@H](C2)C1=O (some centres unmarked)	100%

Count: 3. Required value per item: pest or weed control at 250 g/ha.
1. O=C1C(c2nc(-c3ccc(Cl)cc3)sc2Br)C(=O)[C@H]2CC[C@@H]1C2 (some centres unmarked)
2. Cc1sc(-c2ccc(F)cc2F)nc1C1C(=O)[C@@H]2CC[C@@H](C2)C1=O (some centres unmarked)
3. CCc1sc(-c2ccccc2OC)nc1C1C(=O)[C@@H]2CC[C@@H](C2)C1=O (some centres unmarked)

Result ::
1: 90%; 2: 50%; 3: 30%

* * *

Field: pest or weed control at 250 g/ha. Provide a value for each of the compounds that follow.
test system: Avena fatua (AVEFA); assay: Example B post-emergence herbicidal activity; format: in vivo; conditions: 312 h, rate 250 g/ha, evaluated after 13 days, read-out: Post-emergence activity AVEFA (100=total damage to plant; 0=no damage to plant)
Answers are plain numbers, in %.

Known pest or weed control at 250 g/ha results, listed for orientation:
Cc1ccc(-c2nc(C3C(=O)[C@@H]4CC[C@@H](C4)C3=O)c(C)s2)cc1Cl (stereo partly shown) [Compound T10]	0
O=C1C(c2nc(-c3ccc(Cl)cc3)sc2Cl)C(=O)[C@H]2CC[C@@H]1C2 (stereo partly shown) [Compound T55]	100
CCc1sc(-c2ccc(Cl)cc2)nc1C1=C(OC(=C(C#N)C#N)C(F)(F)F)[C@@H]2CC[C@@H](C2)C1=O [Compound P9]	100
CCc1sc(COc2ccc(Cl)cc2)nc1C1C(=O)[C@@H]2CC[C@@H](C2)C1=O (stereo partly shown) [Compound T41]	70
Cc1sc(-c2ccc(Br)cc2F)nc1C1C(=O)[C@@H]2CC[C@@H](C2)C1=O (stereo partly shown) [Compound T32]	90
C=Cc1ccc(-c2nc(C3C(=O)[C@@H]4CC[C@@H](C4)C3=O)c(C)s2)cc1 (stereo partly shown) [Compound T78]	0
CCc1sc(-c2ccc(Cl)cc2Cl)nc1C1C(=O)[C@@H]2CC[C@@H](C2)C1=O (stereo partly shown) [Compound T46]	90
Cc1ncc(-c2ccc(Cl)cc2)cc1C1C(=O)[C@@H]2CC[C@@H](C2)C1=O (stereo partly shown) [Compound T118]	80
Cc1sc(-c2ccc([S+](C)[O-])cc2)nc1C1C(=O)[C@@H]2CC[C@@H](C2)C1=O (stereo partly shown) [Compound T82]	0
CC(C)(C)C(=O)OC1=C(c2csc(-c3ccc(Cl)cc3)n2)C(=O)[C@@H]2CC[C@H]1C2 [Compound P22]	0

Count: 6. Required value per item: pest or weed control at 250 g/ha.
1. Cc1sc(-c2ccc(C(=O)O)cc2)cc1C1C(=O)C2CCC(C2)C1=O (stereo not shown) [Compound T24]
2. Cc1sc(-c2ccc(OC(F)(F)F)cc2)nc1C1C(=O)[C@@H]2CC[C@@H](C2)C1=O (stereo partly shown) [Compound T5]
3. Cc1sc(-c2cccc(Cl)c2Cl)nc1C1C(=O)[C@@H]2CC[C@@H](C2)C1=O (stereo partly shown) [Compound T62]
4. Cc1sc(-c2ccc(Br)cn2)nc1C1C(=O)[C@@H]2CC[C@@H](C2)C1=O (stereo partly shown) [Compound T35]
5. CCc1sc(-c2ccc(Br)cn2)nc1C1C(=O)[C@@H]2CC[C@@H](C2)C1=O (stereo partly shown) [Compound T39]
6. Cc1nc(-c2ccc(Cl)cc2)sc1C1C(=O)[C@@H]2CC[C@@H](C2)C1=O (stereo partly shown) [Compound T31]

Result ::
1. 0
2. 0
3. 0
4. 80
5. 100
6. 0

* * *

tested on: Lolium perenne (LOLPE); assay: Example A post-emergence herbicidal activity; assay type: in vivo; details: rate 125 g/ha, evaluated 14 or 15 days later
Field: Post-Emergence Activity LOLPE (100=total damage to plant; 0=no damage to plant). Provide a value for each of the molecules that follow.

Known Post-Emergence Activity LOLPE (100=total damage to plant; 0=no damage to plant) results, listed for orientation:
Cc1sc(-c2ccc(Cl)cc2)cc1C1C(=O)[C@@H]2CC[C@@H](C2)C1=O (stereo partly shown)	70
COc1ccc(-c2nc(C3C(=O)[C@@H]4CC[C@@H](C4)C3=O)c(C)s2)cn1 (stereo partly shown)	20
CCc1sc(-c2ccc(Cl)cc2)nc1C1C(=O)[C@@H]2CC[C@@H](C2)C1=O (stereo partly shown)	80
Cc1sc(-c2ccc(Cl)nc2)nc1C1C(=O)[C@@H]2CC[C@@H](C2)C1=O (stereo partly shown)	20
Cc1sc(-c2ccc(Br)cc2)nc1C1C(=O)[C@@H]2CC[C@@H](C2)C1=O (stereo partly shown)	50

Count: 2. Required value per item: Post-Emergence Activity LOLPE (100=total damage to plant; 0=no damage to plant).
1. Cc1[se]c(-c2ccc(Cl)cc2)nc1C1C(=O)[C@@H]2CC[C@@H](C2)C1=O (stereo partly shown)
2. Cc1sc(-c2ccc(Cl)cc2)nc1C1C(=O)[C@@H]2CC[C@@H](C2)C1=O (stereo partly shown)

Result ::
1: 30; 2: 40
